System: SK-MEL-5
experimentalProtocol: NCI tumour cell line growth inhibition, 48 h
The source made the active and inactive calls. Cut-off read from the data, not from the text of the source: active = GI50 up to about 1.1 µM and inactive = higher.
parameter: GI50

Worked examples follow.
>  <molecule>
COc1ccc2c(-c3ccc(OCCN(C)C)cc3)c(Oc3ccc(Cl)cc3)c(=O)oc2c1

>  <GI50>
1.64 µM (inactive)

$$$$
>  <molecule>
CC12C=CC(=O)C=C1CCC1C3CCC(O)(C(=O)CO)C3(C)CC(O)C12F (stereo not given)

>  <GI50>
> 100 µM (inactive)

$$$$
>  <molecule>
CCOC(=O)C(O)(C(=O)OCC)c1cc(C(C)(C)C)c(O)c(C(C)(C)C)c1

>  <GI50>
17.8 µM (inactive)

$$$$
>  <molecule>
COc1ccc(C2=NN(c3ccccc3)C[N+](c3ccc(C)cc3)=N2)cc1

>  <GI50>
> 10 µM (inactive)

$$$$
>  <molecule>
O=C(c1ccccc1)c1c(CNCc2ccccc2)n(C(=O)c2ccccc2)c2ccccc12

>  <GI50>
29.9 µM (inactive)

$$$$

Form field GI50, entry OCCCC(O)(c1ccccc1)c1ccccc1 : > 100 µM (inactive)

Form field GI50, entry COc1cc2oc(-c3ccccc3)cc(=O)c2c(O)c1C : > 100 µM (inactive)

Form field GI50, entry NNC(=O)N/N=C1\C(=O)N(c2ccc(Cl)c(Cl)c2)C(=O)C(=O)C1c1nc2ccccc2s1 (stereo not given) : > 100 µM (inactive)

Form field GI50, entry NCC(NC(=O)OCc1ccccc1)C(=O)O (stereo not given) : > 50 µM (inactive)

Form field GI50, entry N=c1c2ccccc2nc2oc3ccc(Cl)cc3n12 : 37.8 µM (inactive)

Form field GI50, entry Cc1c(O)c(=O)ccn1CCc1c[nH]c2ccccc12 : 6.52 µM (inactive)

###

Tested on: A549
experimentalProtocol: NCI tumour cell line growth inhibition, 48 h
Activity calls are given as the source filed them. Rule as the data show it: active = GI50 up to about 1.1 µM and inactive = higher.
Your response should consist of one outcome taken from 1.0 (active), 0.0 (inactive)

>  <compound>
O=C1C=Cc2c(Br)sc(Br)c21

>  <answerLabel>
0.0

$$$$
>  <compound>
COC(=O)c1ccccc1C1=C([N+](=O)[O-])C(c2cccc(Br)c2)C(C#N)=C(N)O1 (stereo unspecified)

>  <answerLabel>
0.0

$$$$
>  <compound>
COC(=O)C1=C(\c2ccccc2)c2ccccc2C(=O)N(C2CCCCC2)/C=C\1

>  <answerLabel>
0.0

$$$$
>  <compound>
COc1ccc(/C=C2\N=C(c3ccccc3)N(NC3=NC(=O)CC(=O)N3)C2=O)cc1

>  <answerLabel>
0.0

$$$$
>  <compound>
COC(=O)c1nc(-c2ccc(Cl)c(Cl)c2)nc2ccccc12

>  <answerLabel>
0.0

$$$$

What is the recorded call for this compound in the test? CCN1CCC(O)(c2ccc(Cl)c(Cl)c2)C(C(=O)c2ccc(Cl)c(Cl)c2)C1 (stereo unspecified)
0.0

What is the recorded call for this compound in the test? O=c1ssc(Cl)c1Cl
0.0

What is the recorded call for this compound in the test? CC12c3c4cc(Br)cc3Oc3cc(Br)cc(c31)Oc1cc(Br)cc(c12)O4
0.0

###

Test system: UACC-257
experimentalProtocol: NCI tumour cell line growth inhibition, 48 h
Activity calls are given as the source filed them. No stated cut-off is given here; in the data, active = GI50 up to about 1.1 µM and inactive = higher.
Entries and their measured GI50 follow.

>  <molecule>
COc1cc2c3c(c1O)-c1c(ccc(OC)c1OC)CC3N(C)CC2 (stereo not given)

>  <systemTested>
UACC-257

>  <GI50>
> 100 µM (inactive)

$$$$
>  <molecule>
O=C1C=CC2(C=C1)O[C@H](COCc1ccccc1)[C@@H](COCc1ccccc1)O2

>  <systemTested>
UACC-257

>  <GI50>
1.62 µM (inactive)

$$$$
>  <molecule>
CCOC1=C2N=C(C(CC)c3ccccc3F)N=C2C(=O)c2ccccc21 (stereo not given)

>  <systemTested>
UACC-257

>  <GI50>
> 100 µM (inactive)

$$$$
>  <molecule>
Cc1c2oc3c(C)cnc(C(=O)NC4C(=O)NC(C(C)C)C(=O)N5CCCC5C(=O)N(C)CC(=O)N(C)C(C(C)C)C(=O)OC4C)c3nc-2c(C(=O)NC2C(=O)NC(C(C)C)C(=O)N3CCCC3C(=O)N(C)CC(=O)N(C)C(C(C)C)C(=O)OC2C)c(N)c1=O (stereo not given)

>  <systemTested>
UACC-257

>  <GI50>
4.58 µM (inactive)

$$$$

Then there is this molecule:
Form field GI50, entry COc1cc(/C=C2\C(=O)N(c3cccc(NC(C)=O)c3)C(c3ccccc3)S2(=O)=O)cc(OC)c1OC (stereo not given) : > 100 µM (inactive)

###

System: HOP-92
experimentalProtocol: NCI tumour cell line growth inhibition, 48 h
Active and inactive are the calls of the source. Cut-off read from the data, not from the text of the source: active = GI50 up to about 1.1 µM and inactive = higher.
Entries and their measured GI50 follow.

Worked examples follow.
>  <compound>
c1ccc2cc(CN3CCC(C4CCN(Cc5ccc6ccccc6c5)CC4)CC3)ccc2c1

>  <reading>
4.1 µM (inactive)

$$$$
>  <compound>
C=CC(Br)(CBr)CCC1OC1(C)C (stereo unspecified)

>  <reading>
14.4 µM (inactive)

$$$$

Form field GI50, entry NC(=O)N/N=C(/c1nc2ccc([N+](=O)[O-])cc2nc1O)C(O)c1ccco1 (stereo unspecified) : > 100 µM (inactive)

Form field GI50, entry COc1cc(OCc2nc3ccccc3n3cccc23)cc(OC)c1OC : 10 µM (inactive)

Form field GI50, entry N#C[BH2-][n+]1cn(C2CC(O)C(COP(=O)(O)OC3CC(n4c[n+]([BH2-]C#N)c5c(=O)[nH]c(N)nc54)OC3CO)O2)c2nc(N)[nH]c(=O)c21 (stereo unspecified) : > 100 µM (inactive)

Form field GI50, entry Cc1cccc2c1CC1(Cc3c(C)cccc3C1=O)C2=O : > 100 µM (inactive)

Form field GI50, entry COc1cccc(Nc2nc(N)nc(N)c2N=O)c1 : 7.14 µM (inactive)

Form field GI50, entry C[C@H](CC[C@@H](O)C(C)(C)O)[C@H]1CC[C@@]2(C)[C@@H]3CC=C4[C@@H](CC[C@H](OC5OC(CO)C(O)C(O)C5O)C4(C)C)[C@]3(C)C(=O)C[C@]12C (stereo partly specified) : > 100 µM (inactive)

Form field GI50, entry N#CCOc1ccc(/C=C/C(=O)c2ccc(Cl)cc2)cc1 : 32 µM (inactive)

###

Entries and their measured GI50 follow.
System: SK-OV-3
experimentalProtocol: NCI tumour cell line growth inhibition, 48 h
The source made the active and inactive calls. Cut-off read from the data, not from the text of the source: active = GI50 up to about 1.1 µM and inactive = higher.

Worked examples follow.
>  <compound>
COc1ccc2nc3cccc([N+](=O)[O-])c3c(NCCC(=O)O)c2c1

>  <GI50>
> 10 µM (inactive)

$$$$
>  <compound>
N#CC(C(=O)/C(=N/N)C(C#N)c1ccccc1)c1ccccc1 (centres undefined)

>  <GI50>
> 100 µM (inactive)

$$$$

Form field GI50, entry CC1CCc2sc3nc(S)n(C)c(=O)c3c2C1 (centres undefined) : 81.3 µM (inactive)

Form field GI50, entry Cc1ccc(-c2cc(=O)c3cc(C)c(C)c(C(=O)O)c3o2)cc1 : > 100 µM (inactive)

###

Tested on: COLO 205
experimentalProtocol: NCI tumour cell line growth inhibition, 48 h
Active and inactive are the calls of the source. No stated cut-off is given here; in the data, active = GI50 up to about 1.1 µM and inactive = higher.
parameter: GI50

Worked examples follow.
>  <compound>
CN(C)CCOc1ccc2[nH]c(C(=O)N3CC(CCl)c4c3cc(NC(=O)OCc3ccc([N+](=O)[O-])cc3)c3ccccc43)cc2c1 (stereo not drawn)

>  <systemTested>
COLO 205

>  <GI50>
1.64 µM (inactive)

$$$$
>  <compound>
CCCCCC(O)[C@H]1C(=O)C[C@@H](O[Si](C)(C)C(C)(C)C)[C@@H]1/C=C/CCOCc1ccccc1 (stereo partly drawn)

>  <systemTested>
COLO 205

>  <GI50>
16 µM (inactive)

$$$$

Then there is this compound:
Form field GI50, entry O=C(c1ccccc1)c1c(CNCc2ccccc2)n(C(=O)c2ccccc2)c2ccccc12 : 47 µM (inactive)

###

Test system: SNB-75
experimentalProtocol: NCI tumour cell line growth inhibition, 48 h
Calls of active or inactive are those of the source. No stated cut-off is given here; in the data, active = GI50 up to about 1.1 µM and inactive = higher.
Entries and their measured GI50 follow.

>  <molecule>
C#CCOC(=O)C(N)CC(N)=O (stereo not given)

>  <GI50>
> 100 µM (inactive)

$$$$

Form field GI50, entry NCC(NC(=O)OCc1ccccc1)C(=O)O (stereo not given) : > 50 µM (inactive)

Form field GI50, entry O=C1c2ccccc2-c2c1c1ccccc1c(=O)n2-c1cccnc1 : 49.1 µM (inactive)

Form field GI50, entry COc1cc(CC2C(=O)OCC2Cc2ccc(OC)c(OC)c2)ccc1O (stereo not given) : > 60.5 µM (inactive)

Form field GI50, entry O=c1[nH]nc(-c2ccccc2)n1/N=C/c1ccncc1 : 81.3 µM (inactive)

###

System: TK-10
experimentalProtocol: NCI tumour cell line growth inhibition, 48 h
Active and inactive are the calls of the source. Cut-off read from the data, not from the text of the source: active = GI50 up to about 1.1 µM and inactive = higher.
parameter: GI50

Worked examples follow.
>  <structureNotation>
COc1ccc(Cl)cc1NC(=O)O/N=C(\Cl)C(C)C

>  <GI50>
2.55 µM (inactive)

$$$$
>  <structureNotation>
C[C@H](O)C(=O)SC[C@H](NC(=O)CC[C@@H](N)C(=O)O)C(=O)NCC(=O)O

>  <GI50>
> 100 µM (inactive)

$$$$
>  <structureNotation>
COc1cccc(OC)c1NC(=O)C(=O)Nn1c(NNC(=O)c2ccncc2)nc2ccccc2c1=O

>  <GI50>
> 100 µM (inactive)

$$$$
>  <structureNotation>
O=C(N/N=C/c1ccccc1)c1c(F)c(F)c(F)c(F)c1F

>  <GI50>
> 100 µM (inactive)

$$$$

Then there is this compound:
Form field GI50, entry CCOC(C/N=c1/nc(N(C)C)ss1)OCC : 33.3 µM (inactive)
